Test system: C. neoformans var. grubii, KN99
Assay: C. neoformans growth inhibition assay (limiting dilution)
Assay type: cell-based, Cryptococcus neoformans
Conditions: Cryptococcus neoformans, 48 h, Table 2 amides; 48 h, 35° C., tested 0.19 to 50 μM; read-out: C. neoformans MIC80
quantity name: MIC80 (µM)
Unit µM implied. Number only.

The examples below pair each entry with its known result.
COC(=O)[C@H](CCSC)NC(=O)c1cc(O)c(=O)c(O)cc1C [compound 796]
18
Cc1cc(O)c(=O)c(O)cc1C(=O)NC(CCCCNC(=O)OC(C)(C)C)C(=O)OC(C)(C)C (centres unmarked) [compound 869]
9
CCS(=O)(=O)N1CCN(C(=O)c2cc(O)c(=O)c(O)cc2C)CC1 [compound 802]
50
Cc1cc(O)c(=O)c(O)cc1C(=O)NCCc1ccccc1 [compound 710]
2.5

The compound listed as Cc1cc(O)c(=O)c(O)cc1C(=O)N1CCS(=O)(=O)C1 [compound 709] shows MIC80 equal to 50

// provenance: patent US12606529B2
